binders and their reported percent of control (POC) of FACS Geo Mean
biological target: T1, hOrai1-mOrai1 ECL2 chimeric protein (human/mouse chimera, UniProt Q96D31 1-301); experiment: FACS, 293EBNA; set-up: concentration or dose not given beside the values
T1 construct: human Orai1 with mouse ECL2; also called Ch
T1 sequence (Q96D31 other isoform, or with tags, fused parts or gaps mutant): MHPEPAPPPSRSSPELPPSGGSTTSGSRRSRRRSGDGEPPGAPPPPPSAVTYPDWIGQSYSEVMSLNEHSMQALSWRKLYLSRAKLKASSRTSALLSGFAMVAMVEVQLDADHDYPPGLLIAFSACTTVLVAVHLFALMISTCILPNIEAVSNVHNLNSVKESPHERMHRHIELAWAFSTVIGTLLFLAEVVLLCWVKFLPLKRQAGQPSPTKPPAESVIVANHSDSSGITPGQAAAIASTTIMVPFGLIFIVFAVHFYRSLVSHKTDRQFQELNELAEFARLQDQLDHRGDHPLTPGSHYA
Attribute Measured: percent of control (POC) of FACS Geo Mean

Binder: mAb 2C1.1 (antibody, human IgG2, lambda, V domains shown, fully human IgG2 lambda, Campaign 1; tested hybridoma-purified and recombinant; also called anti-hOrai1 mAb 2C1.1) VH: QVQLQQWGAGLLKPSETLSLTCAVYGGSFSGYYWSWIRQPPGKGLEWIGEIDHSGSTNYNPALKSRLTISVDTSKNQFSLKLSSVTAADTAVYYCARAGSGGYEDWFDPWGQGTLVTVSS VL: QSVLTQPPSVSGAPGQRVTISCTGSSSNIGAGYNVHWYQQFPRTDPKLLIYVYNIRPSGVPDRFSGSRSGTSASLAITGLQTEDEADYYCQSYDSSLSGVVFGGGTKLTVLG
Endpoint Result: < 1%

Binder: mAb 2B4.1 (antibody, human IgG2, lambda, V domains shown) VH: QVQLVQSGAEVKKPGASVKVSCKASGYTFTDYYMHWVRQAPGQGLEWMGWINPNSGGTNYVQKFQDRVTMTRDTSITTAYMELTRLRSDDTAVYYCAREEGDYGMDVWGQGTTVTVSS VL: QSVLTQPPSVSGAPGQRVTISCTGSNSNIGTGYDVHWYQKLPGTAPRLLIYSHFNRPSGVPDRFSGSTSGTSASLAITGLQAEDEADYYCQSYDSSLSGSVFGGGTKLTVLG
Endpoint Result: < 1%

Binder: mAb 2D2.1 (antibody, human IgG2, lambda, V domains shown, fully human IgG2 lambda, Campaign 1; also called mAb 2D.1) VH: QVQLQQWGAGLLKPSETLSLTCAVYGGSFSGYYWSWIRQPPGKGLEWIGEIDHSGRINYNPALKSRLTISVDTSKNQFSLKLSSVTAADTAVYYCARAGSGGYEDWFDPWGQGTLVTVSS VL: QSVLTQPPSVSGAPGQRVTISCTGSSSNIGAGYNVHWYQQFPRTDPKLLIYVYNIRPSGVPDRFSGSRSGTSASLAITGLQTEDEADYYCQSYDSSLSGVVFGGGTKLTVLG
Endpoint Result: < 1%
